- Assayed Target: alanyl aminopeptidase (APN) (Homo sapiens, UniProt P15144)
- Sequence (P15144 whole entry, species assumed): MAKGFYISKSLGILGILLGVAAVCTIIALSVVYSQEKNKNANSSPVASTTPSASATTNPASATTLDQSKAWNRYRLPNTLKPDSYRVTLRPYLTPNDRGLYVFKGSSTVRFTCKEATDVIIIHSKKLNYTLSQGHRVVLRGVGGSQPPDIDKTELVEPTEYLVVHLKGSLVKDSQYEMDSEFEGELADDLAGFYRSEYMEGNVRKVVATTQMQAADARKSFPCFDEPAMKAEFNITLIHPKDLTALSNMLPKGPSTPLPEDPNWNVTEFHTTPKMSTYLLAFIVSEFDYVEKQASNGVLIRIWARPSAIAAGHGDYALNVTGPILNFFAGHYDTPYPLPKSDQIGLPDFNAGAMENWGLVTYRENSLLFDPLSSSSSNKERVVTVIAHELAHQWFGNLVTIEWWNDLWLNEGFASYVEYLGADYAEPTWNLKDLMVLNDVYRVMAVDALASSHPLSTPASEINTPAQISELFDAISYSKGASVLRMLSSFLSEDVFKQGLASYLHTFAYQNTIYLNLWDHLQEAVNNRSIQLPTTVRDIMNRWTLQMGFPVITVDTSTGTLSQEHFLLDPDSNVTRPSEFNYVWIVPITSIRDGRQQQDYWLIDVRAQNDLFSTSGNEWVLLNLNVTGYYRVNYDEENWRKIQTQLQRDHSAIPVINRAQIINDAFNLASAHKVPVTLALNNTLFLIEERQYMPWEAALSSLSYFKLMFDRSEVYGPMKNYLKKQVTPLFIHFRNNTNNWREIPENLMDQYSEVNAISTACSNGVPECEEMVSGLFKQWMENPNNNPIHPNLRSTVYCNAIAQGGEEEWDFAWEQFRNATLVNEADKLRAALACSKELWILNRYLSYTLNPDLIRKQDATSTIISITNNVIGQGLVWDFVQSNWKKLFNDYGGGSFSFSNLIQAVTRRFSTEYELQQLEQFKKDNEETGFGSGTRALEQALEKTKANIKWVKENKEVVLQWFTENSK
- Test Summary: Inhibition of alanyl aminopeptidase enzymatic activity, fluorogenic substrate (Ala)2-rhodamine
- Assay type: biochemical
- Experimental Parameters: second value of cell DPIV/APN; unmarked = IC-50; read-out: IC50 APN
pIC50: −log10 of the molar value.
Property Measured: pIC50

Molecule | Value
CCOC(=O)N1CCN(C(c2cccs2)c2c(C)[nH]c3ccccc23)CC1 (centres unmarked) [Compound C4.015] | 4.60
Cc1[nH]c2ccccc2c1C(c1cccs1)N1CCCC1 (centres unmarked) [Compound C4.019] | 4.46
Cc1[nH]c2ccccc2c1C(c1cccs1)N1CCCCC1 (centres unmarked) [Compound C4.017] | 4.51
COc1ccccc1N1C(=O)c2ccc(Oc3ccc(NC(=O)CCS(=O)(=O)c4ccc(C)cc4)cc3)cc2C1=O [Compound C10.015] | 4.57
Cc1[nH]c2ccccc2c1C(c1ccccn1)N1CCN(c2ccc(F)cc2)CC1 (centres unmarked) [Compound C4.009] | 4.12
Cc1[nH]c2ccccc2c1C(c1ccccn1)N1CCOCC1 (centres unmarked) [Compound C4.012] | 4.44
COc1ccc(N2C(=O)c3ccc(Oc4ccc(N5C(=O)c6ccc(C(=O)O)cc6C5=O)cc4)cc3C2=O)cc1 [Compound C12.001] | 4.83
Cc1[nH]c2ccccc2c1C(c1ccccn1)N1CCN(c2ccccn2)CC1 (centres unmarked) [Compound C4.008] | 4.55

* * *

Readings of IC50 for the listed compounds
- Assayed Target: alanyl aminopeptidase (APN) (Homo sapiens)
- Test Summary: Inhibition of alanyl aminopeptidase enzymatic activity, fluorogenic substrate (Ala)2-rhodamine
- Assay type: biochemical
- Experimental Parameters: second value of cell DPIV/APN; unmarked = IC-50; read-out: IC50 APN
Property Measured: IC50 (µM)

Compound | Property Measured | Value
CCOC(=O)C(NC(=O)c1ccc(OC)cc1)(N1CCOCC1)C(F)(F)F (centres unmarked) | IC50 | 90.2
CCOC(=O)C1CCN(C(c2ccccn2)c2c(C)[nH]c3ccccc23)CC1 (centres unmarked) | IC50 | 32
Cc1[nH]c2ccccc2c1C(c1cccs1)N1CCC(C(N)=O)CC1 (centres unmarked) | IC50 | 48
CCOC(=O)C(NC(=O)c1cccc(Cl)c1)(Nc1ccccc1OC)C(F)(F)F (centres unmarked) | IC50 | 21.7
CC(C)OC(=O)C1=C(N)N2C(=O)CSC2=C(C(=O)OC(C)C)C1 | IC50 | 75
Cc1[nH]c2ccccc2c1C(c1cc(Cl)ccc1O)N1CCOCC1 (centres unmarked) | IC50 | 11.8
Cc1[nH]c2ccccc2c1C(c1ccccn1)N1CCC(C(N)=O)CC1 (centres unmarked) | IC50 | 42
Cc1[nH]c2ccccc2c1C(c1ccccn1)N1CCCCC1 (centres unmarked) | IC50 | 78

* * *

- Assayed Target: dipeptidyl peptidase IV (DPIV) (Homo sapiens)
- Test Summary: Inhibition of dipeptidyl peptidase IV enzymatic activity, fluorogenic substrate (Ala-Pro)2-rhodamine
- Format: biochemical
- Experimental Parameters: first value of cell DPIV/APN; unmarked = IC-50; read-out: IC50 DPIV

Compound | Assayed Target | IC50, µM
COc1ccc(N2C(=O)c3ccc(Oc4ccc(N5C(=O)c6ccc(C(=O)O)cc6C5=O)cc4)cc3C2=O)cc1 | dipeptidyl peptidase IV (DPIV) (Homo sapiens) | 20.6
CCOC(=O)C(NC(=O)c1cccc(Cl)c1)(Nc1ccccc1OC)C(F)(F)F (centres unmarked) | dipeptidyl peptidase IV (DPIV) (Homo sapiens) | 18.9
CC(C)OC(=O)C1=C(N)N2C(=O)CSC2=C(C(=O)OC(C)C)C1 | dipeptidyl peptidase IV (DPIV) (Homo sapiens) | 79
Cc1[nH]c2ccccc2c1C(c1ccccn1)N1CCN(c2ccccn2)CC1 (centres unmarked) | dipeptidyl peptidase IV (DPIV) (Homo sapiens) | 45
COC(=O)C1=C(N)N2C(=O)CSC2=C(C(=O)OC(C)C)C1 [Compound C10.003] | dipeptidyl peptidase IV (DPIV) (Homo sapiens) | 10.8
COC(=O)C1=c2s/c(=C\c3cccc(OC)c3)c(=O)n2C(N)=C(S(=O)(=O)c2ccccc2)C1c1cccc(OC)c1 (centres unmarked) | dipeptidyl peptidase IV (DPIV) (Homo sapiens) | 140
O=C(N/N=C/c1cc(Br)cc(Br)c1OC(=O)c1ccccc1)/C(=C/c1ccc2c(c1)OCO2)NC(=O)c1ccccc1 | dipeptidyl peptidase IV (DPIV) (Homo sapiens) | 38.6
CCOC(=O)N1CCN(C(c2cccs2)c2c(C)[nH]c3ccccc23)CC1 (centres unmarked) | dipeptidyl peptidase IV (DPIV) (Homo sapiens) | 49

* * *

- Assayed Target: dipeptidyl peptidase IV (DPIV) (Homo sapiens, UniProt P27487)
- Sequence (P27487 whole entry, species assumed): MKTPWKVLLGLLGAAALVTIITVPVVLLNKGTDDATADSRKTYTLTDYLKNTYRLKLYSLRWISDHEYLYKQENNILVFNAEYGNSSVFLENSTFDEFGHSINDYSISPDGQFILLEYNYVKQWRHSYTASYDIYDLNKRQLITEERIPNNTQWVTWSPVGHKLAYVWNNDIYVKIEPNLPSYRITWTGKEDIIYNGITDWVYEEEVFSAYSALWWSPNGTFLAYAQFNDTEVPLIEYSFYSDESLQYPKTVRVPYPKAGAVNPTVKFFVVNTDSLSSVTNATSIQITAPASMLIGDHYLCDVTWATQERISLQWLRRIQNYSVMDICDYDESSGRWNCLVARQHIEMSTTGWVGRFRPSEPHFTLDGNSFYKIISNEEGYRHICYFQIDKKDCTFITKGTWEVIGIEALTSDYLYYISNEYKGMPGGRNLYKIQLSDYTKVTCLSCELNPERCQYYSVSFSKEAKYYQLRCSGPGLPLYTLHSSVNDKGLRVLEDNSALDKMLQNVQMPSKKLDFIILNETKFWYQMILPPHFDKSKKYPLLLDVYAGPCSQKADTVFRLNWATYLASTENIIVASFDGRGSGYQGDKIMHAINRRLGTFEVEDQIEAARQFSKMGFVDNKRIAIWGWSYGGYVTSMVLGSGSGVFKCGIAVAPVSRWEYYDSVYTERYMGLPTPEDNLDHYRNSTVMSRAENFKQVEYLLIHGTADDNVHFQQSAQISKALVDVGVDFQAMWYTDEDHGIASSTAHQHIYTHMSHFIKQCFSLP
- Test Summary: Inhibition of dipeptidyl peptidase IV enzymatic activity, fluorogenic substrate (Ala-Pro)2-rhodamine
- Type: biochemical
- Experimental Parameters: first value of cell DPIV/APN; marked * = ID50 value; read-out: ID50 DPIV (marked with *)
Property Measured: IC50 (µM)

Compound | Value
COc1ccc(C(=O)N/N=C\c2cc(Br)c(O)c(O)c2Br)cc1 [Compound C2.013] | 94

* * *

- Assayed Target: alanyl aminopeptidase (APN) (Homo sapiens, UniProt P15144)
- Test Summary: Inhibition of alanyl aminopeptidase enzymatic activity, fluorogenic substrate (Ala)2-rhodamine
- Type: biochemical
- Experimental Parameters: second value of cell DPIV/APN; unmarked = IC-50; read-out: IC50 APN

Compound | Assayed Target | IC50
COc1ccc(C(c2c(C)[nH]c3ccccc23)N2CCCC2)cc1 (stereo not shown) | alanyl aminopeptidase (APN) (Homo sapiens, UniProt P15144) | 30 µM
Cc1[nH]c2ccccc2c1C(c1cccs1)N1CCOCC1 (stereo not shown) | alanyl aminopeptidase (APN) (Homo sapiens, UniProt P15144) | 32 µM
COC(=O)C1=C(N)N2C(=O)CSC2=C(C(=O)OC(C)C)C1 | alanyl aminopeptidase (APN) (Homo sapiens, UniProt P15144) | 6.9 µM
COC(=O)C1=c2s/c(=C\c3ccco3)c(=O)n2C(N)=C(S(=O)(=O)c2ccccc2)C1c1ccco1 (stereo not shown) | alanyl aminopeptidase (APN) (Homo sapiens, UniProt P15144) | 100 µM

* * *

- Assayed Target: alanyl aminopeptidase (APN) (Homo sapiens)
- Test Summary: Inhibition of alanyl aminopeptidase enzymatic activity, fluorogenic substrate (Ala)2-rhodamine
- Assay type: biochemical
- Experimental Parameters: Table 8; second value of cell; unmarked = IC-50; read-out: IC50 APN
pIC50: −log10 of the molar value.

Compound | Assayed Target | pIC50
CCOC(=O)C(NC(=O)c1ccc(OC)cc1)(N1CCOCC1)C(F)(F)F (stereo not shown) | alanyl aminopeptidase (APN) (Homo sapiens) | 4.04

* * *

# pIC50 listing for each entry below
- Assayed Target: UniProt:P27487
- Test Summary: Inhibition of dipeptidyl peptidase IV enzymatic activity, fluorogenic substrate (Ala-Pro)2-rhodamine
- Format: biochemical
- Experimental Parameters: first value of cell DPIV/APN; unmarked = IC-50; read-out: IC50 DPIV
pIC50: −log10 of the molar value.

Compound | pIC50
O=C(N/C(=C\c1ccco1)C(=O)N1CCCC(CO)C1)c1ccccc1 (centres unmarked) [Compound C9.006] | 3.82
Cc1[nH]c2ccccc2c1C(c1cccs1)N1CCCC1 (centres unmarked) [Compound C4.019] | 4.24
COc1ccccc1N1C(=O)c2ccc(Oc3ccc(NC(=O)CCS(=O)(=O)c4ccc(C)cc4)cc3)cc2C1=O [Compound C10.015] | 4.00
CCOC(=O)C1=c2s/c(=C\c3cccs3)c(=O)n2C(N)=C(S(=O)(=O)c2ccccc2)C1c1cccs1 (centres unmarked) [Compound C16.008] | 3.86
Cc1[nH]c2ccccc2c1C(c1cccs1)N1CCOCC1 (centres unmarked) [Compound C4.018] | 4.21
CCOC(=O)C(NC(=O)c1ccc(OC)cc1)(N1CCCC1=O)C(F)(F)F (centres unmarked) [Compound C7.002] | 4.60
COC(=O)C1=C(N)N2C(=O)CSC2=C(C(=O)OC(C)C)C1 [Compound C16.001] | 4.97
COc1ccc(C(c2c(C)[nH]c3ccccc23)N2CCCC2)cc1 (centres unmarked) [Compound C4.016] | 4.31

* * *

- Assayed Target: dipeptidyl peptidase IV (DPIV) (Homo sapiens)
- Test Summary: Inhibition of dipeptidyl peptidase IV enzymatic activity, fluorogenic substrate (Ala-Pro)2-rhodamine
- Type: biochemical
- Experimental Parameters: Table 8; first value of cell; unmarked = IC-50; read-out: IC50 DPIV
pIC50: −log10 of the molar value.
Property Measured: pIC50

Query Smiles | Property Measured | Value
C=CCN1C(=O)C(C#N)=C(C)/C(=C\c2ccc(-c3cc(C)c(C)cc3[N+](=O)[O-])o2)C1=O | pIC50 | 4.18
COC(=O)C1=C(N)N2C(=O)CSC2=C(C(=O)OC(C)C)C1 | pIC50 | 4.97
